Data provenance: the supplement of paper PMC6555819

tested on: PPARg:RXRa (NR concentration 180 nM, RXRa partner concentration 90 nM); assay: PBM binding z-score (relative to random genomic background probes); higher = stronger binding; sequences stand for … in GC…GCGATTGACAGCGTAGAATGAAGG
Response field class: string, computed from recorded PBM binding z-score by ranges lo = under 0.8, med = from 0.8 up to 7, hi = 7 and over

construct.sequence	target.entity	label.value
ATATGTAGGTTAAGGCTCATTCAGGTTGGTTCGC	PPARg:RXRa (NR concentration 180 nM, RXRa partner concentration 90 nM)	med
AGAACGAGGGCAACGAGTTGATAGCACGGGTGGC	PPARg:RXRa (NR concentration 180 nM, RXRa partner concentration 90 nM)	med
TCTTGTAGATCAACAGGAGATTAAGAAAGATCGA	PPARg:RXRa (NR concentration 180 nM, RXRa partner concentration 90 nM)	lo
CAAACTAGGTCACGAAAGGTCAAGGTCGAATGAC	PPARg:RXRa (NR concentration 180 nM, RXRa partner concentration 90 nM)	hi
CCTACTGGGCCATCGGGTCATTGATATCAACGTT	PPARg:RXRa (NR concentration 180 nM, RXRa partner concentration 90 nM)	med
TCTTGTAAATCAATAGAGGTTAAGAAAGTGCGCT	PPARg:RXRa (NR concentration 180 nM, RXRa partner concentration 90 nM)	lo

For the next question, use this sequence.
## Task Returns: class label. Input: `ATCTCTAGGTAAAAATAGTTCAGTGAATGCAAAT`
## Result lo
